- target_of_assay: CHIKV p62-E1 (Chikungunya virus)
- assay_explanation: SPR (Biacore T100), IgG captured by anti-human IgG, p62-E1 injected
pKd: −log10 of the molar value.
The threshold is inclusive: pKd of exactly 9 counts as TRUE; values below receive FALSE.

(Q) Check this binder for pKd at or above 9: 4J14 (antibody, V domains shown) VH: QVQLVQSGAEVKKPGSSVKVSCKASGGTSSTYAISWVRQAPGQGLEWMGGSIPVFATVNYAQKFQGRLTITADESTSTVYMELSSLRSEDTAVYFCASPYCSSMNCYTTFYYFDFWGQGTLVTVSS VL: QAVVTQPASVFGFPGQSITISCTGTSSDFGTYNYVSWYQQHPGQAPKLMIFDVSNRPSGVSNRFSGSKSGNTASLTISGLQAEDEASYYCSSYTSGSTLYGGGTKLTVL
(A) FALSE

(Q) Reported pKd reaches at least 9 for 2D12 (antibody, V domains shown) VH: QVQLVQSGAEVKKPGASVKVSCKASGYSFNIYGISWVRQAPGQGLEWMGWISAYNGNTNYAQKLQGRVTMTTDTSTSTAYMELRSLRSDDTAVYYCARPLWGEFYYDIWGQGTLVTVSS VL: QAVVTQSPGTLSLSPGERATLSCRASQSVSSGYSAWYQQKPGQAPRLLIYGASKRAAGIPDRFSGSGSGTDFTLTISRLEPEDFAVYYCQLFATSPPPFGQGTRLEIK ?
(A) TRUE
